# credit: ChEMBL document CHEMBL4196201

Test: Cytotoxicity in mouse parental BA/F3 cells incubated for 72 hrs by MTS assay
Assay type: cell-based, BaF3
Measured Quantity: GI50 at 72 h

// GI50 at 72 h lookup, compound = COc1cc(OC)c2c(Oc3ccc(NC(=O)Cn4cc(C(C)C)nn4)cc3)ncnc2c1 , result: > 10 µM

// GI50 at 72 h lookup, compound = COc1cc2ncnc(Oc3ccc(NC(=O)Cn4cc(C(C)C)nn4)cc3)c2cc1OC , result: > 10 µM

// GI50 at 72 h lookup, compound = COc1ccc2c(Oc3ccc(CC(=O)Nc4cn(C)nc4C)c(OC)c3)ccnc2c1 , result: 4.29 µM

* * *

Experiment: Half life in CD1 mouse at 21 umol/kg, po
Type: ADME, organism-based
Conditions: in vivo
Measured Quantity: half-life (h)
Field format: number, assumed h, no unit text.

// half-life lookup, compound = COCCOc1cc(F)c2c(Nc3ccc(NC(=O)Cn4cc(C(C)C)nn4)cc3)ncnc2c1 , result: 2

* * *

Assay: Half life in dog rat at […], po
Type: ADME, organism-based, Canis lupus familiaris
Details: in vivo
Measured Quantity: half-life (h)
Field format: number, assumed h, no unit text.

// half-life lookup, molecule = COCCOc1cc(F)c2c(Nc3ccc(NC(=O)Cn4cc(C(C)C)nn4)cc3)ncnc2c1 , result: 4

* * *

Experiment: Cytotoxicity in mouse parental BA/F3 cells incubated for 72 hrs by MTS assay
Assay type: cell-based, BaF3
Give GI50 at 72 h for every item shown.

// GI50 at 72 h lookup, compound = CCn1c(=O)c(-c2cc(NC(=O)Nc3ccccc3)c(F)cc2Br)cc2cnc(NC)cc21 , result: 8.04 µM

// GI50 at 72 h lookup, compound = COCCOc1cc(F)c2c(Nc3ccc(NC(=O)Cn4cc(C(C)C)nn4)cc3)ncnc2c1 , result: > 10 µM

// GI50 at 72 h lookup, compound = COc1cc2nccc(Oc3cnc(CC(=O)Nc4cnn(C(C)C)c4)c(OC)c3)c2cc1OC , result: > 10 µM

// GI50 at 72 h lookup, compound = Cn1cc(-c2cc3c(N4CCN(c5ncc([C@@](C)(N)c6ccc(F)cc6)cn5)CC4)ncnn3c2)cn1 , result: 4.08 µM

// GI50 at 72 h lookup, compound = COc1cc(Oc2ncnc3cc(OC)c(OC)cc23)ccc1CC(=O)Nc1cnn(C(C)C)c1 , result: > 10 µM

// GI50 at 72 h lookup, compound = COc1cc2nccc(Oc3ccc(NC(=O)Cc4cnn(C(C)C)c4)cc3)c2cc1OC , result: > 10 µM

// GI50 at 72 h lookup, compound = COc1cc(F)c2c(Nc3ccc(NC(=O)Cn4cc(C(C)C)nn4)cc3)ncnc2c1 , result: > 10 µM

// GI50 at 72 h lookup, compound = CCn1cc(CC(=O)Nc2ccc(Oc3ncnc4cc(OC)c(OC)cc34)cc2)cn1 , result: > 10 µM

// GI50 at 72 h lookup, compound = COc1cc2nccc(Oc3ccc(NC(=O)Cc4cnn(C(C)C)c4)nc3)c2cc1OC , result: > 10 µM

// GI50 at 72 h lookup, compound = COc1cc(Oc2ccnc3cc(OC)c(OC)cc23)ccc1CC(=O)Nc1cnn(C(C)C)c1 , result: > 10 µM

// GI50 at 72 h lookup, compound = Cc1ccc(NC(=O)c2ccc(CN3CCN(C)CC3)cc2)cc1Nc1nccc(-c2cccnc2)n1 , result: > 10 µM

// GI50 at 72 h lookup, compound = CCn1cc(NC(=O)Cc2ccc(Oc3ncnc4cc(OC)c(OC)cc34)cc2)cn1 , result: > 10 µM

// GI50 at 72 h lookup, compound = CNC(=O)c1cc(Oc2ccc(NC(=O)Nc3ccc(Cl)c(C(F)(F)F)c3)c(F)c2)ccn1 , result: 9.95 µM

// GI50 at 72 h lookup, compound = CCn1cc(CC(=O)Nc2ccc(Oc3ncnc4cc(OC)c(OC)cc34)cc2OC)cn1 , result: > 10 µM

// GI50 at 72 h lookup, compound = COc1cc2ncnc(Oc3cnc(CC(=O)Nc4cnn(C(C)C)c4)c(OC)c3)c2cc1OC , result: > 10 µM

// GI50 at 72 h lookup, compound = COc1cc(OC)c2c(Nc3ccc(NC(=O)Cn4cc(C(C)C)nn4)cc3)ncnc2c1 , result: > 10 µM

// GI50 at 72 h lookup, compound = COc1cc2ncnc(Oc3ccc(CC(=O)Nc4cnn(C(C)C)c4)cc3)c2cc1OC , result: > 10 µM

// GI50 at 72 h lookup, compound = CCN(CC)CCNC(=O)c1c(C)[nH]c(/C=C2\C(=O)Nc3ccc(F)cc32)c1C , result: 4.79 µM

* * *

Quick note: these are GI50 numbers for system: Mast/stem cell growth factor receptor Kit (Homo sapiens) (UniProt P10721)
Sequence (P10721 whole entry): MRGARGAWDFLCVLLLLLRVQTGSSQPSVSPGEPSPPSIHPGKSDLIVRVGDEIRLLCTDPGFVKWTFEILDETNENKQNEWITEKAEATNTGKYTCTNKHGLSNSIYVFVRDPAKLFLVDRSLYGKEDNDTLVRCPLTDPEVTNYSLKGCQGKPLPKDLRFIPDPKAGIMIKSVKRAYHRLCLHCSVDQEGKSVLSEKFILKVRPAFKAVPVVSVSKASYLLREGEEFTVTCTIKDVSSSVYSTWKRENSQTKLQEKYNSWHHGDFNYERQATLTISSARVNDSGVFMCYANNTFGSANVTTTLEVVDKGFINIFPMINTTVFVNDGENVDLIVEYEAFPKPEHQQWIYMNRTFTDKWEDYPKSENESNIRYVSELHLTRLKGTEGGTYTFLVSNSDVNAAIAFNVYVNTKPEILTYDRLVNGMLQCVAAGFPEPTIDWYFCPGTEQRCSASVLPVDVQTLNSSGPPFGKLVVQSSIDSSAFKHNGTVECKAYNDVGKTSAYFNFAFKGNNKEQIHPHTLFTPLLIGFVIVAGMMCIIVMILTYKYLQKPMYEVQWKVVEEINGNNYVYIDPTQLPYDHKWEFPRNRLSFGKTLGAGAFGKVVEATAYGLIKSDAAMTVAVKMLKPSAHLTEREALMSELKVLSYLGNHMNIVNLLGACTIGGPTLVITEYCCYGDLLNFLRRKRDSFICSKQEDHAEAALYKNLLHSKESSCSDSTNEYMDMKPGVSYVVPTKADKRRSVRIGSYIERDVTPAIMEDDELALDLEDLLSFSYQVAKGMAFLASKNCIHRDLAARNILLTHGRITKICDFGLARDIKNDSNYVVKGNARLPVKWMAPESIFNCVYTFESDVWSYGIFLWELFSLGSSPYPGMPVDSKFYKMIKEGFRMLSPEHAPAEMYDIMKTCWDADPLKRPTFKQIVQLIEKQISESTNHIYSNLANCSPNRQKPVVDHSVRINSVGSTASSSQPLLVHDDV
Field format: number, assumed nM, no unit text.

// GI50 lookup, compound = Cn1cc(-c2cc3c(N4CCN(c5ncc([C@@](C)(N)c6ccc(F)cc6)cn5)CC4)ncnn3c2)cn1 , result: 751

// GI50 lookup, compound = CNC(=O)c1cc(Oc2ccc(NC(=O)Nc3ccc(Cl)c(C(F)(F)F)c3)c(F)c2)ccn1 , result: 1270

// GI50 lookup, compound = CCN(CC)CCNC(=O)c1c(C)[nH]c(/C=C2\C(=O)Nc3ccc(F)cc32)c1C , result: 12

// GI50 lookup, compound = Cc1ccc(NC(=O)c2ccc(CN3CCN(C)CC3)cc2)cc1Nc1nccc(-c2cccnc2)n1 , result: 3950

* * *

Species on record: Homo sapiens
Experiment: Selectivity index, ratio of GI50 for inhibition of Kit exon 11 deletion and D816H mutant (unknown origin) transfected in mouse BA/F3 cells assessed as inhibition of cell growth to GI50 for inhibition of KDR (unknown origin) transfected in mouse BA/F3 cells assessed as inhibition of cell growth
Format: cell-based
Give Selectivity index (KDR GI50 / Kit GI50) for every item shown.

// Selectivity index (KDR GI50 / Kit GI50) lookup, compound = COc1cc2ncnc(Oc3ccc(NC(=O)Cn4nnc(C(C)C)n4)cc3)c2cc1OC , result: 15.7

// Selectivity index (KDR GI50 / Kit GI50) lookup, compound = COc1cc2ncnc(Oc3ccc(NC(=O)Cc4cn(C(C)C)nn4)cc3)c2cc1OC , result: 12.6

// Selectivity index (KDR GI50 / Kit GI50) lookup, compound = COc1cc2ncnc(Oc3ccc(NC(=O)Cn4cnc(C(C)C)n4)cc3)c2cc1OC , result: 15.9

// Selectivity index (KDR GI50 / Kit GI50) lookup, compound = COc1cc2ncnc(Oc3ccc(NC(=O)Cn4cnc(C(C)C)c4)cc3)c2cc1OC , result: 34.1

// Selectivity index (KDR GI50 / Kit GI50) lookup, compound = COc1cc2ncnc(Oc3ccc(NC(=O)Cc4cnn(C(C)C)c4)cc3)c2cc1OC , result: 5.9

// Selectivity index (KDR GI50 / Kit GI50) lookup, compound = COc1cc2ncnc(Oc3ccc(NC(=O)Cc4cnn(C(C)C)n4)cc3)c2cc1OC , result: 9.3

// Selectivity index (KDR GI50 / Kit GI50) lookup, compound = COc1cc(OC)c2c(Oc3ccc(NC(=O)Cn4cc(C(C)C)nn4)cc3)ncnc2c1 , result: 24

// Selectivity index (KDR GI50 / Kit GI50) lookup, compound = COc1cc2ncnc(Oc3ccc(NC(=O)Cc4ncn(C(C)C)n4)cc3)c2cc1OC , result: 3.9

// Selectivity index (KDR GI50 / Kit GI50) lookup, compound = COc1cc2ncnc(Oc3ccc(NC(=O)Cn4cc(C(C)C)cn4)cc3)c2cc1OC , result: 11.4

// Selectivity index (KDR GI50 / Kit GI50) lookup, compound = COc1cc(F)c2c(Nc3ccc(NC(=O)Cn4cc(C(C)C)nn4)cc3)ncnc2c1 , result: > 400

// Selectivity index (KDR GI50 / Kit GI50) lookup, compound = COc1cc2ncnc(Oc3ccc(NC(=O)Cc4cnn(C(F)F)c4)cc3)c2cc1OC , result: 4.4

// Selectivity index (KDR GI50 / Kit GI50) lookup, compound = COc1cc2ncnc(Oc3ccc(NC(=O)Cn4cc(C(C)C)nn4)cc3)c2cc1OC , result: 32 to 32.2

// Selectivity index (KDR GI50 / Kit GI50) lookup, compound = COc1cc(OC)c2c(Nc3ccc(NC(=O)Cn4cc(C(C)C)nn4)cc3)ncnc2c1 , result: 113

// Selectivity index (KDR GI50 / Kit GI50) lookup, compound = COc1cc2ncnc(Oc3ccc(NC(=O)Cc4cn(C(C)C)cn4)cc3)c2cc1OC , result: 4.6

// Selectivity index (KDR GI50 / Kit GI50) lookup, compound = COc1cc2ncnc(Oc3ccc(NC(=O)Cc4nnc(C(C)C)s4)cc3)c2cc1OC , result: 9.9

// Selectivity index (KDR GI50 / Kit GI50) lookup, compound = COc1cc2ncnc(Oc3ccc(NC(=O)Cc4cc(C(C)C)n[nH]4)cc3)c2cc1OC , result: 15.6
